Provenance of the data: ChEMBL document CHEMBL4354826

- assaySystem: Protein cereblon/Signal transducer and activator of transcription 3 (Homo sapiens, UniProt P40763+Q96SW2)
- Sequence (P40763 whole entry): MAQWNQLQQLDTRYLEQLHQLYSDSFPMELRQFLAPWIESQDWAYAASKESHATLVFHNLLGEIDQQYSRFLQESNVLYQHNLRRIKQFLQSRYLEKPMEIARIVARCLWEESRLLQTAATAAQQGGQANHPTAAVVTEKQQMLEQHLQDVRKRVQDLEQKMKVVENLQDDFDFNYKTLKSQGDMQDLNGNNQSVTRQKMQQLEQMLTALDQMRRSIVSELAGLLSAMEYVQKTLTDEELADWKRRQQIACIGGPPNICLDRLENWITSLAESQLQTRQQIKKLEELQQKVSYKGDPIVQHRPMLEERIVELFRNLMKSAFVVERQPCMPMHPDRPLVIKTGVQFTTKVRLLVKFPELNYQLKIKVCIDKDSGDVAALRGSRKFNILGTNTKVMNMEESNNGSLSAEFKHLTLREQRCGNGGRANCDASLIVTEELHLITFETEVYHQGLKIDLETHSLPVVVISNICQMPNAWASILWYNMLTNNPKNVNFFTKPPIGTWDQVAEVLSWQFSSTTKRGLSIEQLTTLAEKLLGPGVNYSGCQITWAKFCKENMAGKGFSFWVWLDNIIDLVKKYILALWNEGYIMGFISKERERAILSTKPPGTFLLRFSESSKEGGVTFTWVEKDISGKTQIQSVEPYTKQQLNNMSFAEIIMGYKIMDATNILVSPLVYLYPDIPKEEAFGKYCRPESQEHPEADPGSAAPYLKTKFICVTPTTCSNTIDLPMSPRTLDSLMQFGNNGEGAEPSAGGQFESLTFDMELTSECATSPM
- Sequence (Q96SW2 whole entry): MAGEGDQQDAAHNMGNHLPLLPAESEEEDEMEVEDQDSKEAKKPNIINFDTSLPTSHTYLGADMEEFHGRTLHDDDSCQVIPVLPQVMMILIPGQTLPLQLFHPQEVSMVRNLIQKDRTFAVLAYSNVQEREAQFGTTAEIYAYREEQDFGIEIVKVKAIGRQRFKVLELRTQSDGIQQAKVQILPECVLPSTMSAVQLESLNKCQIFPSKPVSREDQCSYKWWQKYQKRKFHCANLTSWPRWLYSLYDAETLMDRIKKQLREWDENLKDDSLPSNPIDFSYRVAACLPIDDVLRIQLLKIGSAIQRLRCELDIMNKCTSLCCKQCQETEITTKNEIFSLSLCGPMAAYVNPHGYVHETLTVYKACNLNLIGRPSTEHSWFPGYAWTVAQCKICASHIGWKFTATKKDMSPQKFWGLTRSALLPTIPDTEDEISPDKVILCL
- procedureDetails: Protac activity at CRBN/STAT3 in human MOLM16 cells assessed as degradation of STAT3 incubated for 4 hrs by Western blot analysis
- Format: cell-based
quantityKind: DC50 (nM)
# output: bare number, implied unit nM

compound	quantityKind	displayUnit	resultValue
NC(=O)CC[C@H](NC(=O)[C@@H]1CC[C@@H]2CCN(CCCCCCC#Cc3cccc4c3CN(C3CCC(=O)NC3=O)C4=O)C[C@H](NC(=O)c3cc4cc(C(F)(F)P(=O)(O)O)ccc4[nH]3)C(=O)N21)C(=O)NC(c1ccccc1)c1ccccc1 (stereo partly drawn)	DC50	nM	650

Now for the compound whose DC50 we want.
# DC50 (compound: NC(=O)CC[C@H](NC(=O)[C@@H]1CC[C@@H]2CCN(C(=O)CCCCCC#Cc3cccc4c3CN(C3CCC(=O)NC3=O)C4=O)C[C@H](NC(=O)c3cc4cc(C(F)(F)P(=O)(O)O)ccc4[nH]3)C(=O)N21)C(=O)NC(c1ccccc1)c1ccccc1 (stereo partly drawn) ) is 60
